Assay: Inhibition of Plasmodium falciparum falcipain-2 after 12 hrs by fluorescence spectroscopy-based on-bead assay
Parameters: concentration or dose not given beside the values
Conditions: concentration not given here
Peptide text beside a SMILES is read from it.
I'd appreciate it if you could supply inhibition values for the items below.
// units = %; emit number, no label

Given item CC(C)[C@H](NC(=O)[C@@H](NC(=O)[C@@H](NC(=O)[C@H](CC(N)=O)NC(=O)/C=C/C(=O)NCC(=O)NCC(=O)N[C@@H](Cc1ccccc1)C(=O)O)C1CCCCC1)C(C)C)C(N)=O (HELM PEPTIDE1{[O=C(/C=C/C(=O)[*:2])NCC(=O)NCC(=O)N[C@@H](Cc1ccccc1)C(=O)O].N.[O=C([C@@H](N[*:1])C1CCCCC1)[*:2]].V.V.[am]}$$$$V2.0) , the value recorded as its inhibition is 61

Given item CC(C)[C@H](NC(=O)[C@@H](NC(=O)[C@@H](NC(=O)[C@H](CC(N)=O)NC(=O)/C=C/C(=O)N[C@@H](C)C(=O)NCC(=O)N[C@@H](Cc1ccccc1)C(=O)O)c1ccccc1)C(C)C)C(N)=O (HELM PEPTIDE1{[C[C@H](NC(=O)/C=C/C(=O)[*:2])C(=O)NCC(=O)N[C@@H](Cc1ccccc1)C(=O)O].N.[Phg].V.V.[am]}$$$$V2.0) , the value recorded as its inhibition is 51

The values you see were collected from ChEMBL document CHEMBL1155459.
